From: the supplement of paper PMC12636033

- Tested on: muMax20 (Max(13-93) K31hArg/K57hArg, M65Nle)
- assay-details: PBM 8-mer E-score (E-score (rank enrichment, -0.5 to 0.5)); higher = stronger preferential binding
In all, about 33,000 sequences were measured (“E-score (rank enrichment, -0.5 to 0.5)”: median about -0.0068, highest 2% from about 0.24 on). Many of the other results were omitted from the sample, so the highest values are more common in it than they were.
Label yes when PBM 8-mer E-score is at or above 0.03; anything below gets no.

// known answers, use as guide
1. CATATACC = yes
2. ATACTGAA = yes
3. AATATAGA = yes
4. AATATACT = yes
5. CGCAGAGA = no

Q) Check if PBM 8-mer E-score >= 0.03 (inclusive). Item: `AATACGAA`
A) yes

Q) Check if PBM 8-mer E-score >= 0.03 (inclusive). Item: `CGAGCAGC`
A) no

Q) Check if PBM 8-mer E-score >= 0.03 (inclusive). Item: `CCGAGCGA`
A) no
